TARGET_OR_TEST_SYSTEM: T1, human KLK5 (human, UniProt Q9Y337 67-293)
T1 construct: also called huKLK5; KLK5 AMC
T1 sequence: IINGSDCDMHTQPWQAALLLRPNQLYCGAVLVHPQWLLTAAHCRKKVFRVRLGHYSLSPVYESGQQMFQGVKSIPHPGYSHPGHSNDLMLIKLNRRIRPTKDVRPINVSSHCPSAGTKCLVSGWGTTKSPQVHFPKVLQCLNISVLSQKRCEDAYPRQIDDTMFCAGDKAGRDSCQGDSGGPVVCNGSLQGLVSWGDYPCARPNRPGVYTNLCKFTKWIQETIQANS
PROTOCOL_NOTES: SPR, one-armed monovalent antibody
READOUT: kon
Value and unit, in that order.

BINDER | kon
OA.hu.9H5.H14L4.G54A.G98Q.S95Y (antibody, V domains shown, One-armed (OA) monovalent anti-KLK5 antibody with a human IgG1 Fc, with Q38E/Q39K; constant regions and dummy Fc chain not specified) VH: EVQLVESGGGLIQPGGSLRLSCAASGFSLSSYGVSWVRKAPGKGLEYVGFIGSAGFAYYASWAKSRFTISRDNSKNTLYLQMNSLRAEDTAVYYCARDDVQGGKSLDIWGQGTLVTVSS VL: DIQMTQSPSSLSASVGDRVTITCQASQSISSYLSWYQEKPGKAPKLLIYSASTLASGVPSRFSGSGSGTDFTLTISSLQPEDFATYYCHQDYTSYNVDNTFGGGTKVEIK | 2.73e+06 M⁻¹ s⁻¹
OA.hu.9H5.H14L4.G54A.S95Y (antibody, V domains shown, One-armed (OA) monovalent anti-KLK5 antibody with a human IgG1 Fc, with Q38E/Q39K; constant regions and dummy Fc chain not specified) VH: EVQLVESGGGLIQPGGSLRLSCAASGFSLSSYGVSWVRKAPGKGLEYVGFIGSAGFAYYASWAKSRFTISRDNSKNTLYLQMNSLRAEDTAVYYCARDDVGGGKSLDIWGQGTLVTVSS VL: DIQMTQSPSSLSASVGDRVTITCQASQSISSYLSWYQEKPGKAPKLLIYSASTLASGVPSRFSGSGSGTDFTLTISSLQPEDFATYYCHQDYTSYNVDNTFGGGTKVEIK | 992000 M⁻¹ s⁻¹
OA.hu.9H5.H14L4.G98Q.H89V (antibody, V domains shown, One-armed (OA) monovalent anti-KLK5 antibody with a human IgG1 Fc, with Q38E/Q39K; constant regions and dummy Fc chain not specified) VH: EVQLVESGGGLIQPGGSLRLSCAASGFSLSSYGVSWVRKAPGKGLEYVGFIGSGGFAYYASWAKSRFTISRDNSKNTLYLQMNSLRAEDTAVYYCARDDVQGGKSLDIWGQGTLVTVSS VL: DIQMTQSPSSLSASVGDRVTITCQASQSISSYLSWYQEKPGKAPKLLIYSASTLASGVPSRFSGSGSGTDFTLTISSLQPEDFATYYCVQDYTSSNVDNTFGGGTKVEIK | 2.4e+06 M⁻¹ s⁻¹
OA.hu.9H5.H14L4 (antibody, V domains shown, One-armed (OA) monovalent anti-KLK5 antibody with a human IgG1 Fc, with Q38E/Q39K; constant regions and dummy Fc chain not specified) VH: EVQLVESGGGLIQPGGSLRLSCAASGFSLSSYGVSWVRKAPGKGLEYVGFIGSGGFAYYASWAKSRFTISRDNSKNTLYLQMNSLRAEDTAVYYCARDDVGGGKSLDIWGQGTLVTVSS VL: DIQMTQSPSSLSASVGDRVTITCQASQSISSYLSWYQEKPGKAPKLLIYSASTLASGVPSRFSGSGSGTDFTLTISSLQPEDFATYYCHQDYTSSNVDNTFGGGTKVEIK | 1.07e+06 M⁻¹ s⁻¹

Param item = OA.hu.9H5.H14L4.G54A.H89V (antibody, V domains shown, One-armed (OA) monovalent anti-KLK5 antibody with a human IgG1 Fc, with Q38E/Q39K; constant regions and dummy Fc chain not specified) VH: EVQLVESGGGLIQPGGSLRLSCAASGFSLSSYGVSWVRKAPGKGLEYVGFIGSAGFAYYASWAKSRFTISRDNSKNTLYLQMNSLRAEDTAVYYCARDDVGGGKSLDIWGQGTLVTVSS VL: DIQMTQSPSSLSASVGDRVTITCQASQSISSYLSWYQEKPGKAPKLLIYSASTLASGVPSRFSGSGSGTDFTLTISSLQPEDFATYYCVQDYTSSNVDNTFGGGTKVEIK ; retrieve measured kon.
3.79e+06 M⁻¹ s⁻¹

So what does the record say about kon for OA.hu.9H5.H14L4.G54A.G98Q.H89V (antibody, V domains shown, One-armed (OA) monovalent anti-KLK5 antibody with a human IgG1 Fc, with Q38E/Q39K; constant regions and dummy Fc chain not specified) VH: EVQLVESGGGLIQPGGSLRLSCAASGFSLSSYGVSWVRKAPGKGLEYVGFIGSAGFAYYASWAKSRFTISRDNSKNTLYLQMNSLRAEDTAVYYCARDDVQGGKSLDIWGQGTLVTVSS VL: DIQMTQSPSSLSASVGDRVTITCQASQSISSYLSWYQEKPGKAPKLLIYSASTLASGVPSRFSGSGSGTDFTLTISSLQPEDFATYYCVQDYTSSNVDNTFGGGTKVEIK ?
8.54e+06 M⁻¹ s⁻¹

Value lookup for kon; key = OA.hu.9H5.H14L4.G98Q.H89V.S95Y (antibody, V domains shown, One-armed (OA) monovalent anti-KLK5 antibody with a human IgG1 Fc, with Q38E/Q39K; constant regions and dummy Fc chain not specified) VH: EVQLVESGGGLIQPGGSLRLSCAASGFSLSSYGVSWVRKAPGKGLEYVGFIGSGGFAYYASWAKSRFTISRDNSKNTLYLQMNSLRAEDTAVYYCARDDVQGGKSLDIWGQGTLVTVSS VL: DIQMTQSPSSLSASVGDRVTITCQASQSISSYLSWYQEKPGKAPKLLIYSASTLASGVPSRFSGSGSGTDFTLTISSLQPEDFATYYCVQDYTSYNVDNTFGGGTKVEIK
2.47e+06 M⁻¹ s⁻¹
